target: Thyrotropin receptor (Homo sapiens) (UniProt P16473); assay: Secondary Concentration-Response Assay for Agonists of the Thyroid Stimulating Hormone Receptor: HTRF Activity Detection; details: HEK293-TSHR cells, cAMP HTRF ratio, 30 min; series mostly up to 91.7 µM; also: potency is read from the fitted curve at half-maximal effect;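 as to activation: HEK 293 cells stably expressing human TSHR with RO 20-1724 phosphodiesterase inhibitor; % of control where 0% means no effect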
Sequence (P16473 whole entry, looked up): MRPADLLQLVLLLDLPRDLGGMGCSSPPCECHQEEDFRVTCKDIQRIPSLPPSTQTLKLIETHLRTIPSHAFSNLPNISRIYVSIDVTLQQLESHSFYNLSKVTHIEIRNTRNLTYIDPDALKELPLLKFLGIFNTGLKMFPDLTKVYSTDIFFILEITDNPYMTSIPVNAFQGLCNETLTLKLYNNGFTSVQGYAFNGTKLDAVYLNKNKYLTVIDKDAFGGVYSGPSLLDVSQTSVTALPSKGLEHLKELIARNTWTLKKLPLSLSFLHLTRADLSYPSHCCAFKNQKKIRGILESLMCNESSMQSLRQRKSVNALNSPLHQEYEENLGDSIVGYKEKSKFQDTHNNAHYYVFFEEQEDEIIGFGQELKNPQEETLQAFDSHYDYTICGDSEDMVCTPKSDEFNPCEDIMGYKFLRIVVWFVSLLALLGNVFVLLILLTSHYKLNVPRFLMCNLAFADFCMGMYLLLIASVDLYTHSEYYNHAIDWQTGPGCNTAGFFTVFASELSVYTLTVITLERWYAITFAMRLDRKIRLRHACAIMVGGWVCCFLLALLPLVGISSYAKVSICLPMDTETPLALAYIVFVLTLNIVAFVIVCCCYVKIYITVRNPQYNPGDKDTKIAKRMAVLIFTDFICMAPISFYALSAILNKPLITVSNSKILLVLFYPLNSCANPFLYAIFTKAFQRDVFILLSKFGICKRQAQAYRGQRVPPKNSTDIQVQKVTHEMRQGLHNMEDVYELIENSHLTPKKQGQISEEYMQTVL
Results filed as inconclusive are left out. Activity calls are given as the source filed them. Calls follow the shape of the dose curve; as a rule, active = well fitted activation curve with a large enough effect in the signal ratio, with a control signal flat; inconclusive = small, poorly fitted or top-dose-only effect, or a change in a side signal; inactive = flat fitted curve, though single readings scatter; the % refers to the signal ratio.
ENDPOINT_NAME: Potency

1. COc1ccc(C(=O)N(Cc2ccco2)Cc2cccs2)c(O)c1: 50.1 µM (active)

For every item in the list below, what is its measured Potency?
1. COc1ccc(C(=O)N(Cc2ccccc2)Cc2ccc(OC)c(COc3ccc(NC(C)=O)cc3)c2)cc1
2. COc1ccc(C(=O)N(Cc2ccccc2)Cc2ccco2)c(O)c1

["12.6 µM (active)", "15.8 µM (active)"]

====

Target: Thyrotropin receptor (Homo sapiens) (UniProt P16473)
Assay: Secondary Concentration-Response Assay for Agonists of the Thyroid Stimulating Hormone Receptor: HTRF Activity Detection;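 as to activation: HEK 293 cells stably expressing human TSHR with RO 20-1724 phosphodiesterase inhibitor; % of control where 0% means no effect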
Details: HEK293-TSHR cells, cAMP HTRF ratio, 30 min; series mostly up to 91.7 µM
Method: NIH Chemical Genomics Center [NCGC] NIH Molecular Libraries Screening Centers Network [MLSCN] PI Name: Dr. Marvin Gershengorn, NIH Confirmation of Thyroid Stimulating Hormone Receptor Agonists […] A confirmatory assay of putative TSHR agonists was conducted on a different TSHR transfected HEK 293 cell line, using an orthogonal detection technology to measure cAMP stimulation: antibody-based Homogeneous Time Resolved Fluorescence (HTRF). […] Homogeneous Time Resolved Fluorescence (HTRF) cAMP Assay. […]
Results filed as inconclusive are left out. The source made the active and inactive calls. Calls follow the shape of the dose curve; as a rule, active = well fitted activation curve with a large enough effect in the signal ratio, with a control signal flat; inconclusive = small, poorly fitted or top-dose-only effect, or a change in a side signal; inactive = flat fitted curve, though single readings scatter; the % refers to the signal ratio.
ENDPOINT_NAME: activation

These solved cases illustrate the format of a correct answer.
1) COc1ccc2c(c1OC)C(=O)N1c3ccccc3C(=O)N(c3ccc(F)cc3)C21 (stereo unspecified): inactive
2) CC(=O)Nc1ccc(OCc2cccc(C3Nc4ccccc4C(=O)N3Cc3ccco3)c2)cc1 (stereo unspecified): inactive
3) COc1cccc(CN2C(=O)CN(C3CCCCC3)C(=O)C2c2ccc(F)cc2)c1 (stereo unspecified): 0.406% [at 0.00035 µM] (inactive)
4) COc1ccc(C2Nc3ccccc3C(=O)N2Cc2ccccc2OC)cc1COc1ccc(NC(C)=O)cc1 (stereo unspecified): inactive
5) COc1ccc(C2NC(=O)c3ccccc3N2)cc1COc1ccc(NC(C)=O)cc1 (stereo unspecified): inactive

For every item in the list below, what is its measured activation?
1. O=C(c1cccs1)N(Cc1ccco1)c1ccc(O)cc1
2. COc1ccc(C2Nc3ccccc3C(=O)N2Cc2ccco2)cc1COc1ccc(N)cc1 (stereo unspecified)
3. CCN(CC)CCN1C(=O)c2ccccc2NC1c1ccc(N(C)C)cc1 (stereo unspecified)
4. COc1cc(OC)cc(-c2nnc(SCC(=O)N(C(C)C)C(C)C)o2)c1
5. Cc1occc1-c1nnc(SCC(=O)NCc2ccco2)n1CC(C)C
6. CCOC(=O)N1CCC(NC(=O)c2ccc(CNS(=O)(=O)c3ccc(F)cc3)cc2)CC1
7. C=C(C)Cn1c(-c2ccccc2)nc2ccccc21

["inactive", "inactive", "inactive", "0.0275% [at 0.00035 µM] (inactive)", "0.131% [at 0.00035 µM] (inactive)", "0.984% [at 0.00035 µM] (inactive)", "0.0214% [at 0.00035 µM] (inactive)"]

For every item in the list below, what is its measured activation?
1. CCN(CC)CCN1C(=O)c2ccccc2NC1c1cc(OC)c(OC)c(OC)c1 (stereo unspecified)
2. COc1ccc(C(=O)O)cc1COc1ccc(NC(C)=O)cc1
3. O=C(Nc1ccccn1)NC12CC3CC(CC(C3)C1)C2
4. COc1ccc(C2Nc3ccccc3C(=O)N2CCc2ccc(Cl)cc2Cl)cc1COc1ccc(NC(C)=O)cc1 (stereo unspecified)

1: inactive; 2: inactive; 3: 0.487% [at 0.00035 µM] (inactive); 4: inactive

For every item in the list below, what is its measured activation?
1. CC1(c2ccccn2)Nc2ccccc2-c2nc3ccccc3n21 (stereo unspecified)
2. COc1cc(C2Nc3ccccc3C(=O)N2Cc2ccco2)cc(OC)c1OC (stereo unspecified)
3. O=C1CC(c2ccco2)CC2=C1C(c1ccc(O)cc1)n1nc(C(F)(F)F)nc1N2 (stereo unspecified)
4. COc1ccc(C2Nc3ccccc3C(=O)N2Cc2ccccc2)cc1COc1ccc(Cl)cc1Cl (stereo unspecified)
5. CN1C(=O)N(C)C2(c3ccccc3)Nn3c(s/c(=C/c4ccco4)c3=O)=NC12c1ccccc1 (stereo unspecified)

-0.34% [at 0.00035 µM] (inactive)
inactive
inactive
inactive
0.345% [at 0.00035 µM] (inactive)

Origin of the recorded values: PubChem BioAssay AID933
